Data provenance: the supplement of paper PMC8967900

tested on: JURKAT; test: selective drug sensitivity score (sDSS, relative to normal bone marrow) (sDSS (score)); higher = more potent and effective on the cell line relative to normal bone marrow cells; details: 72 h;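 note: ALL cell lines in 384-well plates, five doses spanning 10,000-fold, each plate scaled between vehicle and 100 µmol/L benzalkonium chloride controls, sDSS an adapted area-under-curve metric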
Experimental endpoint: selective drug sensitivity score
Just the number, please, no unit after it.

IN: Tell me the measured selective drug sensitivity score of C[C@@H](C(=O)O)c1ccc(-c2ccccc2)c(F)c1 [Tarenflurbil] (top concentration 10000 nM) , please.
OUT: -0.16

IN: Tell me the measured selective drug sensitivity score of Nc1cc(F)ccc1NC(=O)/C=C/c1cnn(C/C=C/c2ccccc2)c1 [RGFP966] (top concentration 10000 nM) , please.
OUT: 11.2

IN: Tell me the measured selective drug sensitivity score of CC(=O)[C@]1(O)Cc2c(O)c3c(c(O)c2[C@@H](O[C@H]2C[C@H](N)[C@H](O)[C@H](C)O2)C1)C(=O)c1ccccc1C3=O [Idarubicin] (top concentration 1000 nM) , please.
OUT: 3.34

IN: Tell me the measured selective drug sensitivity score of Cc1c(-c2ccc(N3CCc4cccc(C(=O)Nc5nc6ccccc6s5)c4C3)nc2C(=O)O)cnn1CC12CC3CC(CC(C3)C1)C2 (top concentration 1000 nM) , please.
OUT: 7.34

IN: Tell me the measured selective drug sensitivity score of O=C(c1cccc(Cl)c1F)N1CCN(Cc2cccc(Nc3nccs3)n2)CC1 [MK-8745] (top concentration 10000 nM) , please.
OUT: 9.8

IN: Tell me the measured selective drug sensitivity score of NCCNc1ccc(NCCN)c2c1C(=O)c1ccncc1C2=O [Pixantrone] (top concentration 10000 nM) , please.
OUT: -2.76

---

tested on: REH; experiment: selective drug sensitivity score (sDSS, relative to normal bone marrow) (sDSS (score)); higher = more potent and effective on the cell line relative to normal bone marrow cells; conditions: 72 h
Assignment: determine reported selective drug sensitivity score for the given compounds.

IN: Tell me the measured selective drug sensitivity score of CCS(=O)(=O)c1cccc(-c2cc(C(=O)NC3CCN(C)CC3)c(C)c3[nH]c4ncc(C)cc4c23)c1 [TAK-901] (top concentration 1000 nM) , please.
OUT: 11.1

IN: Tell me the measured selective drug sensitivity score of C[C@]12C=CC(=O)C=C1CC[C@@H]1[C@@H]2[C@@H](O)C[C@@]2(C)[C@H]1CC[C@]2(O)C(=O)CO [Prednisolone] (top concentration 10000 nM) , please.
OUT: -3

IN: Tell me the measured selective drug sensitivity score of OC[C@H]1O[C@@H](n2cnc3c2N=CNC[C@H]3O)C[C@@H]1O [Pentostatin] (top concentration 10000 nM) , please.
OUT: -0.44

IN: Tell me the measured selective drug sensitivity score of NC(=O)Nc1cc(-c2cccc(F)c2)sc1C(=O)N[C@H]1CCCNC1 [AZD7762] (top concentration 1000 nM) , please.
OUT: -1.1

IN: Tell me the measured selective drug sensitivity score of CC[C@@](C)(Nc1ccnc(-c2c[nH]c3ncccc23)n1)C(=O)NCC(F)(F)F [Decernotinib] (top concentration 10000 nM) , please.
OUT: -3.94

IN: Tell me the measured selective drug sensitivity score of Nc1nc(NC2CC2)cc(-c2cccc(Cl)c2Cl)n1 [TH588] (top concentration 25000 nM) , please.
OUT: 5.82

---

test system: PF-382; test: selective drug sensitivity score (sDSS, relative to normal bone marrow) (sDSS (score)); higher = more potent and effective on the cell line relative to normal bone marrow cells; conditions: 72 h
Assignment: determine reported selective drug sensitivity score for the given compounds.
Just the number, please, no unit after it.

IN: Tell me the measured selective drug sensitivity score of Cc1cnc(-c2ccccc2C(C)C)nc1NCc1ccc(-n2ccnn2)cc1 [ML323] (top concentration 10000 nM) , please.
OUT: 3.04

IN: Tell me the measured selective drug sensitivity score of CS(=O)(=O)c1ccc(-c2cnc(N)c(C(=O)Nc3ccccc3)n2)cc1 [VE-821] (top concentration 10000 nM) , please.
OUT: -0.56

IN: Tell me the measured selective drug sensitivity score of Cc1cnc(Nc2ccc(OCCN3CCCC3)cc2)nc1Nc1cccc(S(=O)(=O)NC(C)(C)C)c1 [Fedratinib] (top concentration 10000 nM) , please.
OUT: -3.06

IN: Tell me the measured selective drug sensitivity score of CC[C@H](NC(=O)[C@H](C)NC)C(=O)N1C[C@@H](O)C[C@H]1Cc1c(-c2[nH]c3cc(F)ccc3c2C[C@@H]2C[C@H](O)CN2C(=O)[C@H](CC)NC(=O)[C@H](C)NC)[nH]c2cc(F)ccc12 [Birinapant] (top concentration 1000 nM) , please.
OUT: -4.6
